B1: glmS ribozyme (parent)
chain: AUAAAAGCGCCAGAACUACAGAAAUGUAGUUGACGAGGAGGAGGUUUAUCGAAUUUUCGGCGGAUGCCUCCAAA

variants of: B1; assay: self-cleavage kobs at 10000 uM GlcN6P; higher = faster cleavage; RNA array; conditions: with glucosamine-6-phosphate
Variants at the floor of the assay were thinned out.
Items are presented alongside their recorded self-cleavage kobs at 10000 uM GlcN6P.

// known answers, use as guide
VARIANT SPEC	self-cleavage kobs at 10000 uM GlcN6P
G32U G62A	< 1e-05 s⁻¹
A33C A52U	< 1e-05 s⁻¹

Which self-cleavage kobs at 10000 uM GlcN6P is reported for this variant? C11G G13U C61G
< 1e-05 s⁻¹

Which self-cleavage kobs at 10000 uM GlcN6P is reported for this variant? A14C G35C G38U C61U G63U U65A C71G
< 1e-05 s⁻¹

Which self-cleavage kobs at 10000 uM GlcN6P is reported for this variant? G51C G60U C71A
< 1e-05 s⁻¹

Which self-cleavage kobs at 10000 uM GlcN6P is reported for this variant? A33C C70G
< 1e-05 s⁻¹

Which self-cleavage kobs at 10000 uM GlcN6P is reported for this variant? C10U U47C U56G C68U U69A
< 1e-05 s⁻¹
